Each recorded value in this set is attributed to patent US7964531B2.

test system: barnyardgrass (Echinochloa oryzicola Vasing.); assay: Test Example 1: herbicidal effects, paddy-field pot test; type: in vivo; conditions: chemical dosage 12.5 g/a; wettable powder applied 3 days after transplanting; judged after 25 days
ASSAY ENDPOINT: Herbicidal effects Barnyard grass

1. CSCc1c(C)ccc(C)c1Oc1nnc(Cl)cc1O = 0 (Growth inhibition rate; 0 to 10%)
2. CC(C)c1cccc(C(C)C)c1Oc1nnc(Cl)cc1O = 1 (Growth inhibition rate; 11 to 30%)
3. Cc1ccccc1Oc1nnc(Cl)cc1O = 4 (Growth inhibition rate; 71 to 90%)
4. Oc1cc(Cl)nnc1Oc1ccccc1Cl = 2 (Growth inhibition rate; 31 to 50%)
5. COc1ccccc1Oc1nnc(Cl)cc1O = 2 (Growth inhibition rate; 31 to 50%)
6. Oc1cc(Cl)nnc1Oc1ccccc1Br = 2 (Growth inhibition rate; 31 to 50%)
7. Cc1cc(C)c(Oc2nnc(Cl)cc2O)c(C)c1 = 0 (Growth inhibition rate; 0 to 10%)
8. CCc1cccc(Cl)c1Oc1nnc(Cl)cc1O = 1 (Growth inhibition rate; 11 to 30%)
9. Cc1ccc(C)c(Oc2nnc(Cl)cc2O)c1C = 0 (Growth inhibition rate; 0 to 10%)
10. CCCc1c(C)cc(C)cc1Oc1nnc(Cl)cc1O = 0 (Growth inhibition rate; 0 to 10%)
11. Oc1cc(Cl)nnc1Oc1cccc2ccccc12 = 0 (Growth inhibition rate; 0 to 10%)
12. Cc1ccc(C)c(Oc2nnc(Cl)cc2O)c1 = 0 (Growth inhibition rate; 0 to 10%)

----------
tested on: barnyardgrass (Echinochloa oryzicola Vasing.); assay: Test Example 1: herbicidal effects, paddy-field pot test; assay type: in vivo; details: chemical dosage 12.5 g/a; wettable powder applied 3 days after transplanting; judged after 25 days
ASSAY ENDPOINT: Herbicidal effects Barnyard grass

1. Cc1cc(C)c(C)c(Oc2nnc(Cl)cc2O)c1 = 0 (Growth inhibition rate; 0 to 10%)
2. CSc1c(C)cc(C)cc1Oc1nnc(Cl)cc1O = 0 (Growth inhibition rate; 0 to 10%)
3. Oc1cc(Cl)nnc1Oc1ccccc1F = 1 (Growth inhibition rate; 11 to 30%)
4. CC(C)(C)c1ccccc1Oc1nnc(Cl)cc1O = 1 (Growth inhibition rate; 11 to 30%)
5. CC(C)c1cccc(Br)c1Oc1nnc(Cl)cc1O = 0 (Growth inhibition rate; 0 to 10%)
6. CSc1ccccc1Oc1nnc(Cl)cc1O = 1 (Growth inhibition rate; 11 to 30%)
7. Cc1cccc(C(C)(C)C)c1Oc1nnc(Cl)cc1O = 1 (Growth inhibition rate; 11 to 30%)
8. Cc1cccc(Cl)c1Oc1nnc(Cl)cc1O = 3 (Growth inhibition rate; 51 to 70%)
9. CC(C)c1cccc(Cl)c1Oc1nnc(Cl)cc1O = 0 (Growth inhibition rate; 0 to 10%)
10. Cc1cc(C)cc(Oc2nnc(Cl)cc2O)c1 = 0 (Growth inhibition rate; 0 to 10%)
11. Cc1cc(Oc2nnc(Cl)cc2O)cc(C(C)C)c1 = 0 (Growth inhibition rate; 0 to 10%)

----------
system: barnyardgrass (Echinochloa oryzicola Vasing.); test: Test Example 1: herbicidal effects, paddy-field pot test; type: in vivo; conditions: chemical dosage 10 g/a; wettable powder applied 3 days after transplanting; judged after 25 days
Known Herbicidal effects Barnyard grass of a selection of molecules
ASSAY ENDPOINT: Herbicidal effects Barnyard grass

1) Oc1cc(Cl)nnc1Oc1cccc2c1C1CC1C2 (stereo not shown) = 0 (Growth inhibition rate; 0 to 10%)
2) CCCS(=O)(=O)Oc1cc(Cl)nnc1Oc1ccccc1C1CC1 = 3 (Growth inhibition rate; 51 to 70%)
3) Cc1ccc(C2CC2)c(Oc2nnc(Cl)cc2O)c1 = 0 (Growth inhibition rate; 0 to 10%)
4) Cc1cccc(I)c1Oc1nnc(Cl)cc1O = 3 (Growth inhibition rate; 51 to 70%)
5) Oc1cc(Cl)nnc1Oc1c(Cl)cccc1I = 1 (Growth inhibition rate; 11 to 30%)
6) Oc1cc(Cl)nnc1Oc1c(F)cccc1Br = 3 (Growth inhibition rate; 51 to 70%)
7) Cc1ccc(C2CC2)c(Oc2nnc(Cl)cc2O)c1C = 1 (Growth inhibition rate; 11 to 30%)
8) COc1cccc(Br)c1Oc1nnc(Cl)cc1O = 5 (Growth inhibition rate; 91 to 100%)
9) Oc1cc(Cl)nnc1Oc1c(C2CC2)ccc2c1CCC2 = 3 (Growth inhibition rate; 51 to 70%)
10) O=S(=O)(Oc1cc(Cl)nnc1Oc1ccccc1C1CC1)C(F)(F)F = 4 (Growth inhibition rate; 71 to 90%)
